# Lookup of reported Activity keyed by entry
- Test system: Aspergillus nidulans
- assay.comment: Inhibition of Aspergillus nidulans FcyB expressed in germinating conidiospores of UapA, UapC, AzgA, FurD, FurA, FcyB, CntA transporter deficient Aspergillus nidulans assessed as [2,8 3H]-adenine uptake at 0.5 mM after 1 min by scintillation counting method relative to control
- Design: scale not given: the % may be the effect or the level left

> print(dat)
                       smiles.entry           system.name  observable  assay.value
1      CN(C)CCNc1nccc2c1ncn2C1CCCC1  Aspergillus nidulans    Activity        < 10%
2      CC(C)n1cnc2c(NCCN(C)C)nccc21  Aspergillus nidulans    Activity        < 10%
3    CC(C)n1cnc2c(NCc3ccccc3)nccc21  Aspergillus nidulans    Activity        < 10%
4  c1ccc(CNc2nccc3c2ncn3C2CCCC2)cc1  Aspergillus nidulans    Activity        < 10%
5   CN1CCN(c2nccc3c2ncn3C2CCCC2)CC1  Aspergillus nidulans    Activity        < 10%

Turning now to a further compound:
`Nc1nccc2c1ncn2C1CCCC1` has a reported Activity of < 10%

Source of measurements: ChEMBL document CHEMBL3856282
